Target of assay: ACAT (Rattus norvegicus, UniProt Q7TQM4)
Construct: Rat liver microsomes are used as the source of ACAT; from tissue; host or cells: rat liver microsomes
Sequence (Q7TQM4 whole entry): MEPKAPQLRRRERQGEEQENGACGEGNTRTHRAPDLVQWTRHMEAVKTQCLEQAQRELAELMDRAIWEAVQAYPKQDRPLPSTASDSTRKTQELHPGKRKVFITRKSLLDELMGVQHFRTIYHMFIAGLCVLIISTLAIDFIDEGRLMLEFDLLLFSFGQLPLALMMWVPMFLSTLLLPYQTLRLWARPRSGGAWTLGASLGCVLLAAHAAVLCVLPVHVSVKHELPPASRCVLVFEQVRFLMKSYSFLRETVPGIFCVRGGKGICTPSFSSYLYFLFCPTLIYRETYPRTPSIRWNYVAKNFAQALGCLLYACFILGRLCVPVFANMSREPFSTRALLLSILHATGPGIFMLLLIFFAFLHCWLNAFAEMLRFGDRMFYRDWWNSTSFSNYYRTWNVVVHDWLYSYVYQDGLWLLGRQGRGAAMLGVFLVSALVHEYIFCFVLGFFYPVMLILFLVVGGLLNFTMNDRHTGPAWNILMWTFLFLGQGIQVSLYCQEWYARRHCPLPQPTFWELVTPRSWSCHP
Protocol: ACAT Assay (in vitro)
Assay type: biochemical
Experimental conditions: rat liver microsomes; read-out: ACAT (in vitro) IC50
Value type: IC50 (µM)

INSERT INTO results (molecule, reading_unit, endpoint_value) VALUES
  ('COc1ccc(C=C[C@H]2[C@H](CCCc3ccccc3)C(=O)N2c2ccc(OC)cc2)cc1 (relative stereo)', 'µM', 7),
  ('CC[C@@]1(CCCc2ccccc2)C(=O)N(c2ccc(OC)cc2)[C@H]1CCc1ccccc1 (relative stereo)', 'µM', 5),
  ('CCOc1ccc([C@H]2[C@@H](CCCc3ccccc3)C(=O)N2c2ccc(OC)cc2)cc1 (relative stereo)', 'µM', 5.4),
  ('CC[C@@]1(CCCc2ccccc2)C(=O)N(c2ccc(OC)cc2)[C@H]1C=Cc1ccccc1 (relative stereo)', 'µM', 5);

* * *

Tested on: Hyperlipidemic Hamster
Protocol: In Vivo Assay of Hypolipidemic Agents Using the Hyperlipidemic Hamster
Experimental conditions: Mesocricetus auratus, po, 168 h, 50 mg/kg once daily oral, 7 days; percent change versus control, negative = lowering; read-out: % Reduction (in vivo) Cholest. Esters
Items are presented alongside their recorded change in vivo at 50 mg/kg.
Unit % implied. Number only.

Some molecules with known change in vivo at 50 mg/kg results, for comparison:
INSERT INTO results (molecule, endpoint_value) VALUES
  ('COc1ccc([C@@H]2[C@@H](CCCc3ccccc3)C(=O)N2c2ccc(OC)nc2)cc1 (relative stereo)', -26),
  ('COc1ccc([C@@H]2[C@@H](N(C)CCc3ccccc3)C(=O)N2c2ccccc2)cc1 (relative stereo)', -55),
  ('COc1ccc([C@@H]2[C@H](NC(=O)OCc3ccccc3)C(=O)N2c2ccccc2)cc1 (relative stereo) [Example 12C]', 0);

# ---- query molecule ----
Requested read-out: change in vivo at 50 mg/kg. Entry: COc1ccc(N2C(=O)[C@H](CCCc3ccccc3)[C@@H]2c2ccccc2)cc1 (relative stereo)
0

* * *

Tested on: Hyperlipidemic Hamster
Protocol: In Vivo Assay of Hypolipidemic Agents Using the Hyperlipidemic Hamster
Experimental conditions: Mesocricetus auratus, po, 168 h, 50 mg/kg once daily oral, 7 days; percent change versus control, negative = lowering; read-out: % Reduction (in vivo) Cholest. Esters
Value type: change in vivo at 50 mg/kg (%)
Express your answer in %, writing the number without its unit.

INSERT INTO assay_data (molecule, value_type, reading_unit, endpoint_value) VALUES
  ('COc1ccc([C@@H]2[C@@H](CCCc3ccccc3)C(=O)N2c2cccc3c2CCCC3)cc1 (relative stereo)', 'change in vivo at 50 mg/kg', '%', -20);

Fill in: change in vivo at 50 mg/kg of COc1ccc(N2C(=O)[C@H](CCCc3ccccc3)[C@@H]2c2ccc(C)cc2)cc1 (relative stereo) is ___
-21

Next molecule: COc1ccc([C@H]2[C@@H](CCCc3ccccc3)C(=O)N2c2ccc(Cl)cc2)cc1 (relative stereo)
-78

Note, next up: COc1ccc(N2C(=O)[C@H](CCCc3ccccc3)[C@@H]2c2ccc(C(=O)O)cc2)cc1 (relative stereo) [Example 22A]
-22

And what about the molecule COc1ccc([C@@H]2[C@H](NCC(c3ccccc3)c3ccccc3)C(=O)N2c2ccccc2)cc1 (relative stereo) [Example 14B] ?
0

What do you have for COc1ccc(N2C(=O)[C@@H](CCCc3ccccc3)[C@H]2c2cccc(OC)c2)cc1 (relative stereo) ?
-54

# repeat for COc1ccc(N2C(=O)[C@H](CCCc3ccccc3)[C@@H]2c2ccc3c(c2)OCO3)cc1 (relative stereo)
0

Now try COc1ccc(N2C(=O)[C@H](CCCc3ccccc3)[C@@H]2c2cc(OC)c(OC)c(OC)c2)cc1 (relative stereo) .
0

* * *

Target of assay: ACAT (Rattus norvegicus, UniProt Q7TQM4)
Construct: Rat liver microsomes are used as the source of ACAT; from tissue; host or cells: rat liver microsomes
Protocol: ACAT Assay (in vitro)
Format: biochemical
Experimental conditions: Conc. 10 µM; negative = apparent stimulation; read-out: ACAT (in vitro) % Inhib.
Value type: inhibition at 10 µM (%)

Record excerpt, results attached:
INSERT INTO assay_data (compound, value_type, reading_unit, endpoint_value) VALUES
  ('COc1ccc([C@@H]2[C@@H](CCCCc3ccccc3)C(=O)N2c2ccc(OC)cc2)cc1 (relative stereo)', 'inhibition at 10 µM', '%', 30),
  ('CC[C@H]1C(=O)N(c2ccc(OC)cc2)[C@H]1c1ccccc1 (relative stereo)', 'inhibition at 10 µM', '%', 17),
  ('CCCCCCCCCC[C@]1(C)C(=O)N(c2ccc(OC)cc2)[C@H]1c1ccccc1 (relative stereo)', 'inhibition at 10 µM', '%', -33);

(1) COc1ccc(N2C(=O)[C@H](CCCc3ccccc3)[C@@H]2c2ccc(SC)cc2)cc1 (relative stereo)
(2) COc1ccc(N2C(=O)[C@H](c3ccccc3)[C@H]2c2ccccc2)cc1 (relative stereo)
(3) COc1ccc(N2C(=O)[C@H](CCCc3ccccc3)[C@@H]2c2ccco2)cc1 (relative stereo)
(4) COc1ccc(N2C(=O)[C@H](CCCc3ccccc3)[C@@H]2c2ccc3c(c2)OCO3)cc1 (relative stereo)
(5) COc1ccc([C@H]2[C@@H](CCCc3ccccc3)C(=O)N2c2ccc(OCc3ccccc3)cc2)cc1 (relative stereo)
In this exercise, place the 5 compounds in ascending sequence of their recorded inhibition at 10 µM. Could you list the labels in the order requested?
4, 3, 5, 1, 2

(a) COc1ccc(C2N(c3ccc(OC)cc3)C(=O)C2(c2ccccc2)c2ccccc2)cc1 (centres unmarked)
(b) CC[C@@]1(CCCc2ccccc2)C(=O)N(c2ccc(OC)cc2)[C@H]1CCc1ccccc1 (relative stereo)
(c) CC[C@H]1C(=O)N(c2ccc(OC)cc2)[C@H]1c1ccc([N+](=O)[O-])cc1 (relative stereo)
With regard to inhibition at 10 µM, arrange the entries in ascending order, please. Please reply with the labels ordered as requested. Many thanks.
c, a, b

(1) COc1ccc(N2C(=O)[C@@H](CCCc3ccccc3)[C@@H]2c2cccs2)cc1 (relative stereo)
(2) CC[C@]1(CCCc2ccccc2)C(=O)N(c2c(OC)cc(OC)cc2OC)[C@H]1c1ccccc1 (relative stereo)
For this pair, 1 and 2 , which shows a numerically higher inhibition at 10 µM? Choose, then provide that item's label.
2
(2: 82%, 1: 35%)

* * *

Target of assay: ACAT (Rattus norvegicus, UniProt Q7TQM4)
Construct: Rat liver microsomes are used as the source of ACAT; from tissue; host or cells: rat liver microsomes
Protocol: ACAT Assay (in vitro)
Assay type: biochemical
Experimental conditions: Conc. 10 µM; negative = apparent stimulation; read-out: ACAT (in vitro) % Inhib.
Value type: inhibition at 10 µM (%)

INSERT INTO measurements (compound, endpoint_value) VALUES
  ('COc1ccc(N2C(=O)[C@H](CCCc3ccccc3)[C@@H]2c2cccc(OC(F)(F)F)c2)cc1 (relative stereo) [Example 1BK]', 55),
  ('COc1ccc(N2C(=O)[C@H](CCCc3ccccc3)[C@H]2c2ccc(OC)c(OC)c2)cc1 (relative stereo) [Example 5P]', 53);

(a) CC[C@@]1(CCCc2ccccc2)C(=O)N(c2ccc(OC)cc2)[C@H]1c1ccccc1 (relative stereo) [Example 3A]
(b) CCOc1ccc(N2C(=O)[C@H](CCCc3ccccc3)[C@@H]2c2ccc(OC)cc2)cc1 (relative stereo) [Example 35B]
Compare a and b by numeric inhibition at 10 µM and name the larger one. Kindly state the label of the option you pick.
b

* * *

Tested on: Hyperlipidemic Hamster
Protocol: In Vivo Assay of Hypolipidemic Agents Using the Hyperlipidemic Hamster
Experimental conditions: Mesocricetus auratus, po, 168 h, 50 mg/kg once daily oral, 7 days; percent change versus control, negative = lowering; read-out: % Reduction (in vivo) Cholest. Esters
Value type: change in vivo at 50 mg/kg (%)
Answer format: numeric, % implied, no suffix.

INSERT INTO assay_data (compound, endpoint_value) VALUES
  ('COc1ccc(N2C(=O)C(CCCc3ccccc3)(CCCc3ccccc3)C2C=Cc2ccccc2)cc1 (centres unmarked)', 0),
  ('COc1ccc([C@@H]2[C@@H](CCCC3CCCCC3)C(=O)N2c2ccc(OC)cc2)cc1 (relative stereo)', -28),
  ('CC[C@@]1(c2ccccc2)C(=O)N(c2ccc(OC)cc2)[C@H]1c1ccccc1 (relative stereo)', -39),
  ('COc1ccc(N2C(=O)[C@H](CCCc3ccccc3)[C@H]2c2ccc(OC)c(OC)c2)cc1 (relative stereo)', -33),
  ('CC[C@@]1(CCCc2ccccc2)C(=O)N(c2ccc(OC)cc2)[C@@H]1/C=C/c1ccccc1 (relative stereo)', 0),
  ('COc1ccc(N2C(=O)[C@H](CCCc3ccccc3)[C@H]2c2ccc(CO[Si](C)(C)C(C)(C)C)cc2)cc1 (relative stereo)', -19),
  ('COc1ccc([C@H]2[C@@H](CCCC3CCCCC3)C(=O)N2c2ccc(OC)cc2)cc1 (relative stereo)', -47),
  ('COc1ccc(N2C(=O)[C@H](CCCc3ccccc3)[C@H]2c2cccc(OC)c2)cc1 (relative stereo)', -24);

Data request, read-out change in vivo at 50 mg/kg, for COc1ccc(N2C(=O)[C@@H](CCCc3ccccc3)[C@@H]2c2cccs2)cc1 (relative stereo)
-17

Okay, and COc1ccc([C@@H]2[C@@H](CCCc3ccccc3)C(=O)N2c2ccc(F)cc2)cc1 (relative stereo) ?
-95

Similarly, COc1ccc(C2C(CCCc3ccccc3)C(=O)N2c2ccc(Oc3ccccc3)cc2)cc1 (centres unmarked) ?
-49

For COc1ccc(N2C(=O)[C@@H](CCCc3ccccc3)[C@H]2c2ccc(S(C)(=O)=O)cc2)cc1 (relative stereo) [Example 17A] then?
-25

Next up: CCOc1ccc(N2C(=O)[C@H](CCCc3ccccc3)[C@@H]2c2ccc(OC)cc2)cc1 (relative stereo) [Example 35B]
-99

And the next one, COc1ccc([C@H]2[C@@H](CCCc3ccccc3)C(=O)N2c2ccc(Oc3ccccc3)cc2)cc1 (relative stereo) ?
-22
